TESTED_ON: UniProt:P49841
Sequence (P49841 whole entry, species assumed): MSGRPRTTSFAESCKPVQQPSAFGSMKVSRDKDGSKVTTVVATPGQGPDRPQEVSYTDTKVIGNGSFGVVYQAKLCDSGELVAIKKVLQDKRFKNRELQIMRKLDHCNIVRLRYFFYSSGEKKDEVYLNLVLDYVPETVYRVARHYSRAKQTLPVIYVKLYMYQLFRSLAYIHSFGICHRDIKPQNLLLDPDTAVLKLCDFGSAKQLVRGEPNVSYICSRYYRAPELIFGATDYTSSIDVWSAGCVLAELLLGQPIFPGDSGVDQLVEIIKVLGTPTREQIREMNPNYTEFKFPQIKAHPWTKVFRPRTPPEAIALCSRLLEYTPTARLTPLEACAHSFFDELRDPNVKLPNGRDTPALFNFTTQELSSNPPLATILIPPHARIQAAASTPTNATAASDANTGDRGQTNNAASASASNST
PROCEDURE_TEXT: GSK3beta assay (SPA, biotinylated phosphorylated CREB peptide, ATP-P33)
Format: biochemical
SETTINGS: ranges of pIC50 (−log IC50 (M)); 1 μM ATP, room temperature, one hour; read-out: GSK3b pIC50 (converted)
REPORTED_ENDPOINT: IC50

Please review the entries below; each comes with its answer.
CC(=O)NCc1cccc(-n2nnc3cnc(Nc4cccc(-c5nnnn5C)c4)nc32)c1 :: < 1e-08 M
CN1CCN(CCOc2ccc(Nc3ncc4nnn(-c5cccc(CCO)c5)c4n3)cc2)CC1 :: 1e-08 M
Fc1cccc(-n2nnc3cnc(Nc4cccc(-c5cccnc5)c4)nc32)c1 :: < 1e-08 M
Brc1cccc(-n2nnc3cnc(Nc4cccc(C5=NCNC5)c4)nc32)c1 :: < 1e-08 M
Fc1cccc(-n2nnc3cnc(Nc4ccc(-c5nn[nH]n5)cc4)nc32)c1 :: < 1e-08 M

Determine from records and report IC50 for `Cn1nnc(-c2ccc(Nc3ncc4nnn(-c5cccc(Br)c5)c4n3)cc2)n1`
1e-08 to 1e-07 M

Supply reported IC50 belonging to this molecule: `COc1cccc(-n2nnc3cnc(Nc4cccc(-c5nnn(C)n5)c4)nc32)c1`
< 1e-08 M

Please give the documented IC50 of `CNc1nccc(-c2cccc(Nc3ncc4nnn(-c5cccc(F)c5)c4n3)c2)n1`
< 1e-08 M

Consider the molecule `Cn1nnnc1-c1cccc(Nc2ncc3nnn(-c4cccc(F)c4)c3n2)c1` and give its recorded IC50.
< 1e-08 M

Identify IC50 associated with the molecule `COCCOc1cccc(-n2nnc3cnc(Nc4ccc(OCCCN5CCN(C)CC5)cc4)nc32)c1`
1e-08 to 1e-07 M

Fill in IC50 for record `Nc1nccc(-c2cccc(Nc3ncc4nnn(-c5cccc(S(N)(=O)=O)c5)c4n3)c2)n1`
< 1e-08 M

Provide only the value of recorded IC50 for `COc1ccc(-n2nnc3cnc(Nc4cccc(-c5nccn5C)c4)nc32)cc1`
< 1e-08 M

Supply recorded IC50 for `Cn1cc(Br)c(-c2cccc(Nc3ncc4nnn(-c5cccc(CCO)c5)c4n3)c2)n1` here.
< 1e-08 M
